Listing of recorded Ki by entry.
- TARGET_UNDER_TEST: Human plasma plasmin (Homo sapiens, UniProt P00747)
- Sequence (P00747 581-810 limits assumed): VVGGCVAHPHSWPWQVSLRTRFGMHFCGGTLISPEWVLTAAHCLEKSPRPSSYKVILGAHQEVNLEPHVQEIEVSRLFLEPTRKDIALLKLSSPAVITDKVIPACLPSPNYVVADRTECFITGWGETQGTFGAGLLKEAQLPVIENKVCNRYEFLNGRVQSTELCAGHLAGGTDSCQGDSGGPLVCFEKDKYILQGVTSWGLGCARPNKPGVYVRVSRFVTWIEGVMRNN
- Sequence (P00747 97-580 partner limits assumed): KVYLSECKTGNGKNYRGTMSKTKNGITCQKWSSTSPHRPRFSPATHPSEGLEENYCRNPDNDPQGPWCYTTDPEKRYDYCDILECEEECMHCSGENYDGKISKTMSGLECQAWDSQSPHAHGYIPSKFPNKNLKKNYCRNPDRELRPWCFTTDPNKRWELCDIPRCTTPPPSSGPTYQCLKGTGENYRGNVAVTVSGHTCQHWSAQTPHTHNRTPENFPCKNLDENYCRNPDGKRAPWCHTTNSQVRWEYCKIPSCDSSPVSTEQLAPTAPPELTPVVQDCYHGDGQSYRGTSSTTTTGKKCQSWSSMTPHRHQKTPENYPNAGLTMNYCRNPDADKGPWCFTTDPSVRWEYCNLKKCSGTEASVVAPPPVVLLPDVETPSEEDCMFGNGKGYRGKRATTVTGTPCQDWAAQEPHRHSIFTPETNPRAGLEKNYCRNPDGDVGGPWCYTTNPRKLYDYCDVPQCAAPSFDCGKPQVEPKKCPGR
- ASSAY_PROCEDURE: Ki determination, human plasma plasmin (Tosyl-Gly-Pro-Lys-pNA)
- DETAILS: 100 mM Tris-HCl, pH 7.4, 100 mM NaCl, 0.05% Triton X-100; read-out: Experimentally Determined Ki, Plasmin
Provide the reading as a plain figure in µM.

[[record]]
smiles_input = "N=C(N)c1ccc(C(=O)NCc2ccc(OCCCCCOc3ccc(CNC(=O)c4ccc(C(=N)N)cc4)cc3)cc2)cc1"
target_under_test = "Human plasma plasmin (Homo sapiens, UniProt P00747)"
endpoint_result = 4.1

[[record]]
smiles_input = "N=C(N)c1cccc(S(=O)(=O)NCc2ccc(OCCCCCCOc3ccc(CNS(=O)(=O)c4cccc(C(=N)N)c4)cc3)cc2)c1"
target_under_test = "Human plasma plasmin (Homo sapiens, UniProt P00747)"
endpoint_result = 2.6


Then there is this compound:
## Task What value of Ki on Human plasma plasmin (Homo sapiens, UniProt P00747) does `N=C(N)c1ccc(C(=O)NCc2ccc(OCCOc3ccc(CNC(=O)c4ccc(C(=N)N)cc4)cc3)cc2)cc1` have?
## Result 6.5
